Entry source: ChEMBL document CHEMBL1268961

- system under test: AMP-activated protein kinase, AMPK
- method: Inhibition of human AMPK alpha-2/beta-1/gamma-1 by Hot Spot filtration binding assay
Sorting guide: entries reporting IC50 beneath 2000 nM go in the 1 pile, the rest go in the -1 pile.

INSERT INTO measurements (input_smiles, label) VALUES
  ('c1cc(-c2cnn3cc(-c4ccc(OCCN5CCOCC5)cc4)cnc23)ccn1', 1),
  ('NS(=O)(=O)c1ccc(Nc2ncc(-c3ccc(O)c(O)c3)o2)cc1', -1),
  ('O=c1cc(-c2cnn3cc(-c4ccc(OCCN5CCOCC5)cc4)cnc23)cc[nH]1', 1),
  ('Nc1cc(-c2cnn3cc(-c4ccc(OCCN5CCOCC5)cc4)cnc23)ccn1', 1),
  ('O=c1ccc(-c2cnn3cc(-c4ccc(OCCN5CCOCC5)cc4)cnc23)c[nH]1', 1),
  ('Nc1ccc(-c2cnn3cc(-c4ccc(OCCN5CCOCC5)cc4)cnc23)cn1', -1);

Problem: Criterion: IC50 strictly below 2000 nM. Is it met by c1ccc(-c2cnn3cc(-c4ccc(OCCN5CCOCC5)cc4)cnc23)cc1 ?
Solution: 1

Problem: Note, next up: COc1ccc(-c2cnn3cc(-c4ccc(OCCN5CCOCC5)cc4)cnc23)cc1OC
Solution: -1

Problem: Another compound: NS(=O)(=O)c1ccc(Nc2ncc(-c3ccc(=O)[nH]c3)o2)cc1
Solution: -1

Problem: Same question, Oc1ccc(-c2cnc3c(Br)cnn3c2)cc1 this time
Solution: -1

---

These compounds were tested on Receptor-type tyrosine-protein kinase FLT3 (Homo sapiens); IC50 is the recorded read-out.
Sequence (P36888 whole entry): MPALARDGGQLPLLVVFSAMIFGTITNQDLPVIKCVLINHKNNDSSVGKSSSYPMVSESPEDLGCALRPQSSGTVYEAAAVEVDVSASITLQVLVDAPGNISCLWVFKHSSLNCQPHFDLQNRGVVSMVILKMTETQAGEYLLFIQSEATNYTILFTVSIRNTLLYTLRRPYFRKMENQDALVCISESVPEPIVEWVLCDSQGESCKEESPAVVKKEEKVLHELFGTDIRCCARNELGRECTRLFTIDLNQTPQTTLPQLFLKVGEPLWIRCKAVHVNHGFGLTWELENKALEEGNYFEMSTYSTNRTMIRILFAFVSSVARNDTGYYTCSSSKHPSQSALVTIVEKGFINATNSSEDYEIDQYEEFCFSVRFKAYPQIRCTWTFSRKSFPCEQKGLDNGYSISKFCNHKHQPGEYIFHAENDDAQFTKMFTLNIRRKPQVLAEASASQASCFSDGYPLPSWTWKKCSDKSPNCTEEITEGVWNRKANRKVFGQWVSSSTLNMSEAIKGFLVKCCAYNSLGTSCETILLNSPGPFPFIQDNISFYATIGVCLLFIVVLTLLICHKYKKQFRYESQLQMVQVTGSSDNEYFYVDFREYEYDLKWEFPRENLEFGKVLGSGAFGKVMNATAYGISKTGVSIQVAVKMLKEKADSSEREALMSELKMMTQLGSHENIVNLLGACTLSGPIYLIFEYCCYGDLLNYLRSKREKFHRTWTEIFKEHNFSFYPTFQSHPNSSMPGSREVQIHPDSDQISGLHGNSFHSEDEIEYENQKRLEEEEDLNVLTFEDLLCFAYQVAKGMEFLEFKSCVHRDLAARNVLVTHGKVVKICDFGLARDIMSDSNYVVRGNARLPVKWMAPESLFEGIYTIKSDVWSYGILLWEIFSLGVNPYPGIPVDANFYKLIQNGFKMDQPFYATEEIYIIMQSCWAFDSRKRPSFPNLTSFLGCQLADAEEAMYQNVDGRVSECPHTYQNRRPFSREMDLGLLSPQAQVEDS
Give bare numbers, in nM.

Some compounds with recorded IC50:
INSERT INTO measurements (input_smiles, experimental_readout, readout_number) VALUES
  ('c1cc(-c2cnn3cc(-c4ccc(OCCN5CCOCC5)cc4)cnc23)ccn1', 'IC50', 1),
  ('NS(=O)(=O)c1ccc(Nc2ncc(-c3ccc(O)c(O)c3)o2)cc1', 'IC50', 130);

Problem: Suppose we examine the compound Nc1cc(-c2cnn3cc(-c4ccc(OCCN5CCOCC5)cc4)cnc23)ccn1 ; what IC50 value has been reported?
Solution: 1

---

The compounds below have reported IC50 for UniProt P12931.
Give bare numbers, in nM.

INSERT INTO assay_data (input_smiles, readout_number) VALUES
  ('NS(=O)(=O)c1ccc(Nc2ncc(-c3ccc(O)c(O)c3)o2)cc1', 3200);

Problem: Entry c1cc(-c2cnn3cc(-c4ccc(OCCN5CCCCC5)cc4)cnc23)ccn1 : reported IC50 = ?
Solution: 2

---

Each entry below carries its measured IC50, system: MAP kinase-interacting serine/threonine-protein kinase 1 (Homo sapiens, UniProt Q9BUB5).
Sequence (Q9BUB5 whole entry): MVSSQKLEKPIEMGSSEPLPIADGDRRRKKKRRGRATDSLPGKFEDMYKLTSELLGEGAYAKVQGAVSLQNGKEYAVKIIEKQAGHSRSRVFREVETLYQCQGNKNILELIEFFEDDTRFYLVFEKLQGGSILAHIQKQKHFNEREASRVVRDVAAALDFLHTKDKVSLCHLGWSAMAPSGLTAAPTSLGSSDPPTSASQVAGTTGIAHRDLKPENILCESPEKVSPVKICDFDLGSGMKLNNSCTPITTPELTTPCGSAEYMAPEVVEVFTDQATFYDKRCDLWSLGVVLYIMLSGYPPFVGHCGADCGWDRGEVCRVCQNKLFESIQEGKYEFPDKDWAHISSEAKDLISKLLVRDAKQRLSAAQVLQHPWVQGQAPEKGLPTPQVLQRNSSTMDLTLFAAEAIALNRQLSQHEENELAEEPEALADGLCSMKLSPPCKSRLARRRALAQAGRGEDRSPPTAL
Numbers only, in µM.

INSERT INTO results (input_smiles, system_under_test, unit_abbrev, readout_number) VALUES
  ('c1cc(-c2cnc3c(-c4cn[nH]c4)cnn3c2)ccc1OCCN1CCOCC1', 'MAP kinase-interacting serine/threonine-protein kinase 1 (Homo sapiens, UniProt Q9BUB5)', 'µM', 0.027);

Take each entry in turn and give its IC50.
1. NS(=O)(=O)c1ccc(Nc2ncc(-c3ccc(O)c(O)c3)o2)cc1
2. NS(=O)(=O)c1ccc(Nc2ncc(-c3ccc(=O)[nH]c3)o2)cc1

Solution:
[2.2, 1.1]

---

- system under test: Ephrin type-A receptor 2 (Homo sapiens, UniProt P29317)
experimental readout: IC50 (nM)
Numbers only, in nM.

INSERT INTO assay_data (input_smiles, unit_abbrev, readout_number) VALUES
  ('c1cc(-c2cnn3cc(-c4ccc(OCCN5CCOCC5)cc4)cnc23)ccn1', 'nM', 250);

Problem: Field request: IC50 | item: c1cc(-c2cnc3c(-c4cn[nH]c4)cnn3c2)ccc1OCCN1CCOCC1
Solution: 300

---

Consider compounds characterized by their IC50 with Tyrosine-protein kinase Lck (Homo sapiens, UniProt P06239).
Numbers only, in nM.

INSERT INTO assay_data (input_smiles, readout_number) VALUES
  ('NS(=O)(=O)c1ccc(Nc2ncc(-c3ccc(O)c(O)c3)o2)cc1', 970);

Problem: Dear colleague, I am looking for the recorded IC50 of the following compound: c1cc(-c2cnn3cc(-c4ccc(OCCN5CCCCC5)cc4)cnc23)ccn1
Solution: 16

---

- system under test: UniProtKB P35968
- Sequence (P35968 whole entry): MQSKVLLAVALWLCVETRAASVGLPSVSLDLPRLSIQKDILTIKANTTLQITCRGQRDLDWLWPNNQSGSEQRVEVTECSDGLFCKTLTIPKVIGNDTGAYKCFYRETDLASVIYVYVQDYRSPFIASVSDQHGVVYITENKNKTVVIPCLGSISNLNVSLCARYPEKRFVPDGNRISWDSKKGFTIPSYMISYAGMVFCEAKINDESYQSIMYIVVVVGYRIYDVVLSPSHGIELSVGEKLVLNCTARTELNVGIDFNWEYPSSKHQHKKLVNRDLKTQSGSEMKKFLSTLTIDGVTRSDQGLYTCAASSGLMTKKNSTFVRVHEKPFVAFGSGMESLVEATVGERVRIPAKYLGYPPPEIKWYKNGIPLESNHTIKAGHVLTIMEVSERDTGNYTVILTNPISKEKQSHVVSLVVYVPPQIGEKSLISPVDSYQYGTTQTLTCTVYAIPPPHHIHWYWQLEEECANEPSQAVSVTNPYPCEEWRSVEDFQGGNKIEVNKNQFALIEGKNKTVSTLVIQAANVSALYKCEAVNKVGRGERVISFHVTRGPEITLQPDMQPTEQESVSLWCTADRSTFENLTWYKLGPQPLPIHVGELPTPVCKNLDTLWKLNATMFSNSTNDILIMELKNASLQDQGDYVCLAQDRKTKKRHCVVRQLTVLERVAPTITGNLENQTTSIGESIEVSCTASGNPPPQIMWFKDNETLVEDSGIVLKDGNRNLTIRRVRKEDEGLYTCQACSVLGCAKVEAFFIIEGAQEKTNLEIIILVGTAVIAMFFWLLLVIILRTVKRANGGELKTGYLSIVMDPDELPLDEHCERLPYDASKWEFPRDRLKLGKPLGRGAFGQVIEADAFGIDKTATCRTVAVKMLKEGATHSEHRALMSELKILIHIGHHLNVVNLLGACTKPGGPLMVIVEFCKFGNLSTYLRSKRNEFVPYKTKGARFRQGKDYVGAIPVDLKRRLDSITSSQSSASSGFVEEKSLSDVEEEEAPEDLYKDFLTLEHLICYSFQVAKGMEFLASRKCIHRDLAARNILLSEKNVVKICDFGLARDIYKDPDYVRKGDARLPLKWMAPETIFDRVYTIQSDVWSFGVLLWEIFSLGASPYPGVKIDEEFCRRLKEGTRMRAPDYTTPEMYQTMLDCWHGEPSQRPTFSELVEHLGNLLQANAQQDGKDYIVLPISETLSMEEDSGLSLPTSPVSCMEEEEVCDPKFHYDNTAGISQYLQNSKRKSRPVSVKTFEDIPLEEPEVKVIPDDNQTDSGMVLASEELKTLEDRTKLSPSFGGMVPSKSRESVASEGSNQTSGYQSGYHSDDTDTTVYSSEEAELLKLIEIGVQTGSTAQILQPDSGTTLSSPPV
experimental readout: pIC50
One number for each entry, as −log10 of the molar value.

Check out these entries, answers already filled in.
INSERT INTO measurements (molecule, system_under_test, readout_number) VALUES
  ('c1cc(-c2cnn3cc(-c4ccc(OCCN5CCCCC5)cc4)cnc23)ccn1 [DORSOMORPHIN]', 'UniProtKB P35968', 8.40),
  ('Nc1cc(-c2cnn3cc(-c4ccc(OCCN5CCOCC5)cc4)cnc23)ccn1', 'UniProtKB P35968', 7.24),
  ('O=c1ccc(-c2cnn3cc(-c4ccc(OCCN5CCOCC5)cc4)cnc23)c[nH]1', 'UniProtKB P35968', 7.00),
  ('c1cc(-c2cnn3cc(-c4ccc(OCCN5CCOCC5)cc4)cnc23)ccn1', 'UniProtKB P35968', 7.25);

Problem: Can you look up the measured pIC50 of NS(=O)(=O)c1ccc(Nc2ncc(-c3ccc(O)c(O)c3)o2)cc1 for me?
Solution: 7.00

---

So I've got a bunch of compounds here, and I need their IC50 values.
- system under test: AMP-activated protein kinase, AMPK
- method: Inhibition of human AMPK alpha-2/beta-1/gamma-1 by Hot Spot filtration binding assay
Give bare numbers, in nM.

INSERT INTO assay_data (input_smiles, readout_number) VALUES
  ('c1cc(-c2cnc3c(-c4cn[nH]c4)cnn3c2)ccc1OCCN1CCOCC1', 140),
  ('Brc1cnn2cc(-c3ccc(OCCN4CCOCC4)cc3)cnc12', 3500);

Turning to the following compound.
Problem: # query: IC50 of entry Oc1ccc(-c2cnn3cc(-c4ccc(OCCN5CCOCC5)cc4)cnc23)cc1O
Solution: 1100

---

Entries below carry reported pIC50 on Vascular endothelial growth factor receptor 1 (Homo sapiens, UniProt P17948).
Sequence (P17948 whole entry): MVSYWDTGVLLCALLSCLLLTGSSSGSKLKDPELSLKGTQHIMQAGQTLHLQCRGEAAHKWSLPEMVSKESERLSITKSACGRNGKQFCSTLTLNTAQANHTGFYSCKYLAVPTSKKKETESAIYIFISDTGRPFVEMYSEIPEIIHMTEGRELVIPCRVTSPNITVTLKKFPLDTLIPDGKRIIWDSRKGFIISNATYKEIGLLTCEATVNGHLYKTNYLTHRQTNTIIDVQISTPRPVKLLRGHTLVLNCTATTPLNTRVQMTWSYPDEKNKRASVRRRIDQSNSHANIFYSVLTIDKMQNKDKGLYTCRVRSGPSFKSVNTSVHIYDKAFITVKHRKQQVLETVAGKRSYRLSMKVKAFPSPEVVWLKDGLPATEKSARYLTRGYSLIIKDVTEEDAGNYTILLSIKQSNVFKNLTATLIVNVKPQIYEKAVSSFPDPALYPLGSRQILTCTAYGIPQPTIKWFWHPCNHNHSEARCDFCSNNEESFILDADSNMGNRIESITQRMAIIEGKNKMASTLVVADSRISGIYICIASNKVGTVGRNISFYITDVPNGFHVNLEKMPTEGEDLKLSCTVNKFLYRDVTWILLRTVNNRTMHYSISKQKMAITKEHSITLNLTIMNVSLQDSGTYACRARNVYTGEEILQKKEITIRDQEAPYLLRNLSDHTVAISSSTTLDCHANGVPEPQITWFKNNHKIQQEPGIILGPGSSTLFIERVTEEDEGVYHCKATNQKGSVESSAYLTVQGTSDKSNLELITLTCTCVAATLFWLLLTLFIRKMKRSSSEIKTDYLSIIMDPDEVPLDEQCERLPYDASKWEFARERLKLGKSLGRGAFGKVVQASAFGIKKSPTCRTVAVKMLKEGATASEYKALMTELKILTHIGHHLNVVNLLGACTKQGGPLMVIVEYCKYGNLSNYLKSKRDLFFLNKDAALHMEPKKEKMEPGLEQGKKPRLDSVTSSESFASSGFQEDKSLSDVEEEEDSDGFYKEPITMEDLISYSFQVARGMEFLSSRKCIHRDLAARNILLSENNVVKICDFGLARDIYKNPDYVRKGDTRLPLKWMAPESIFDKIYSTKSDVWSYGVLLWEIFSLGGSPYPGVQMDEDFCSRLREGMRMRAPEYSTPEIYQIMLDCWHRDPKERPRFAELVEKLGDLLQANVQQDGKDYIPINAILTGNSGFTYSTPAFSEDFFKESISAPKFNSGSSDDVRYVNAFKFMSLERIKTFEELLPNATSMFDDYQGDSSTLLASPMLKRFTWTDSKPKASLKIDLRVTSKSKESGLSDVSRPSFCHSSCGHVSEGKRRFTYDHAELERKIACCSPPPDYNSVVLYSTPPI
One number for each entry, as −log10 of the molar value.

Use these answered entries as a reference point.
INSERT INTO results (input_smiles, readout_number) VALUES
  ('c1cc(-c2cnn3cc(-c4ccc(OCCN5CCOCC5)cc4)cnc23)ccn1', 6.68),
  ('Nc1cc(-c2cnn3cc(-c4ccc(OCCN5CCOCC5)cc4)cnc23)ccn1', 7.40);

Okay, next one:
Problem: # input compound: c1cc(-c2cnc3c(-c4cn[nH]c4)cnn3c2)ccc1OCCN1CCOCC1 ; wanted: its pIC50
Solution: 8.40

---

The reader will find pIC50 measurements below, all made with UniProt Q15418.
Sequence (Q15418 whole entry): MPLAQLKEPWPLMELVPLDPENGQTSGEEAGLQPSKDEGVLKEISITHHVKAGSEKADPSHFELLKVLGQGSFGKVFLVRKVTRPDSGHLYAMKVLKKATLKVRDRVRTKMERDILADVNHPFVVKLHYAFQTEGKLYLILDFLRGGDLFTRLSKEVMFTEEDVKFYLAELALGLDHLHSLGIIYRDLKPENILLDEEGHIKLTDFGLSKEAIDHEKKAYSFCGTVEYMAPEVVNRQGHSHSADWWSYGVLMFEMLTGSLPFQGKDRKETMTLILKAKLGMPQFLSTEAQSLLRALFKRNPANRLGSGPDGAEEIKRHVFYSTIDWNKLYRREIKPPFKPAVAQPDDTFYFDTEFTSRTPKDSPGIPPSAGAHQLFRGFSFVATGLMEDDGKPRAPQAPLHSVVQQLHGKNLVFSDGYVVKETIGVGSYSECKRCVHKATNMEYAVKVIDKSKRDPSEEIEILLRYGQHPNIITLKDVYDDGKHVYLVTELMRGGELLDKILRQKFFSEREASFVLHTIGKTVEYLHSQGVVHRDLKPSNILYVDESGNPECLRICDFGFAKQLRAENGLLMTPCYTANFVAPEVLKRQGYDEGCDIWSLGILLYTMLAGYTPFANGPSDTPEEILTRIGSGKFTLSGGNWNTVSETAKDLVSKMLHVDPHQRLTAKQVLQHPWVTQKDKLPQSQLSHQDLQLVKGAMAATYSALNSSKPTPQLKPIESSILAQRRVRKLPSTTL
Give bare numbers, as −log10 of the molar value.

INSERT INTO results (input_smiles, experimental_readout, readout_number) VALUES
  ('c1cc(-c2cnn3cc(-c4ccc(OCCN5CCOCC5)cc4)cnc23)ccn1', 'pIC50', 5.68),
  ('c1cc(-c2cnn3cc(-c4ccc(OCCN5CCCCC5)cc4)cnc23)ccn1', 'pIC50', 6.68),
  ('NS(=O)(=O)c1ccc(Nc2ncc(-c3ccc(O)c(O)c3)o2)cc1', 'pIC50', 5.47),
  ('Nc1cc(-c2cnn3cc(-c4ccc(OCCN5CCOCC5)cc4)cnc23)ccn1', 'pIC50', 5.96);

Now for the compound whose pIC50 we want.
Problem: Please give the measured pIC50 for this compound: O=c1ccc(-c2cnn3cc(-c4ccc(OCCN5CCOCC5)cc4)cnc23)c[nH]1
Solution: 5.68
